# MEASURED_TARGET: UniProtKB P04626
# Sequence (P04626 23-1255, species assumed): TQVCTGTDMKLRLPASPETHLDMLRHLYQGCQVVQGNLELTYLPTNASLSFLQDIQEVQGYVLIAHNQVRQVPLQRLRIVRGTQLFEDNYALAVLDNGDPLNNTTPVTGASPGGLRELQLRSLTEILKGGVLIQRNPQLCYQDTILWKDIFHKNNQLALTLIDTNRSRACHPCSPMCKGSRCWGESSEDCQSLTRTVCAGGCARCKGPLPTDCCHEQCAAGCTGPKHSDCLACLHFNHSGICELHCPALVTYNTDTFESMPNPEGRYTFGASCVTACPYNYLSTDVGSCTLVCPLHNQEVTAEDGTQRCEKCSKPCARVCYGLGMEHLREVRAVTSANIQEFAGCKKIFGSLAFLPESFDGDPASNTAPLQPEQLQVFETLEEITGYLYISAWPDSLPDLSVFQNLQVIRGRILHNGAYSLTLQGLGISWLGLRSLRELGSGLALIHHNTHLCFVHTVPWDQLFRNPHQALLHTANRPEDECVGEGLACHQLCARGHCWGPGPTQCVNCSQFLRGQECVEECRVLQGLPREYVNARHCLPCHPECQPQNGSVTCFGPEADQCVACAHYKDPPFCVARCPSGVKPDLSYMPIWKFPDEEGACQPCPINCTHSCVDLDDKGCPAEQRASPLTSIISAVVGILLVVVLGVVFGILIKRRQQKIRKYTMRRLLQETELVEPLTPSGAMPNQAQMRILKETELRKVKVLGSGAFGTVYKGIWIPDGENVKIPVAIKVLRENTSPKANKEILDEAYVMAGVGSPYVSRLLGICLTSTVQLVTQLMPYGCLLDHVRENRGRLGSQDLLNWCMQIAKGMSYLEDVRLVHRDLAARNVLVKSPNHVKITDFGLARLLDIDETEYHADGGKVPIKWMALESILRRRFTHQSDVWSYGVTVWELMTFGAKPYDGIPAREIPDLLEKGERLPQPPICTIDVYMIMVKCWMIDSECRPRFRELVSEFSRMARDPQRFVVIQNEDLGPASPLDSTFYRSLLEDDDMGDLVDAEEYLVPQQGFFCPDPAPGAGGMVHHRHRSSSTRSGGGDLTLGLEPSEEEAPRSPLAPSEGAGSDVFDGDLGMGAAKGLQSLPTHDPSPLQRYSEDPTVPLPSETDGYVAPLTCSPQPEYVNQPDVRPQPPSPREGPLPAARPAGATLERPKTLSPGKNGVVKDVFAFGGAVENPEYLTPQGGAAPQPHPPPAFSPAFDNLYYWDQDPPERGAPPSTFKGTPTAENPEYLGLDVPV
pIC50: −log10 of the molar value.
The reader will find reported pIC50 values listed item by item below.

Here's what some known entries look like.
structure=CCOc1ccc(Nc2ncnc(Nc3cc(-c4ccc(C(=O)OC)cc4)n[nH]3)n2)cc1 assay_value="< 4.98"
structure=COc1ccc(N(C)c2ncnc(Nc3ccc(OC)c(OC)c3)n2)cc1 assay_value="5.02 to 5.18"
structure=Fc1ccc(Nc2ncnc(Nc3ccc4cn[nH]c4c3)n2)cc1Cl assay_value="5.01 to 5.17"
structure=CN(c1cccc(Cl)c1)c1ncnc(Nc2ncccn2)n1 assay_value="< 4.84"
structure=COc1ccc(Nc2ncnc(N(C)C3CCN(C)CC3)n2)cc1OC assay_value="5.01 to 5.17"

Consider the compound CN(c1ccc2c(cnn2Cc2ccccc2)c1)c1ncnc(Nc2cccc(Cc3nnn[nH]3)c2)n1 and give its measured pIC50.
> 6.09

Same thing, different compound: COc1ccc(Nc2nc3ccccc3n2-c2ncnc(Nc3cc(OC)c(OC)c(OC)c3)n2)c(C)c1
5.06 to 5.17

Same question, NC(=O)Cc1cccc(Nc2ncnc(-n3c(N)nc4ccccc43)n2)c1 this time
5.18 to 5.95

Likewise for CC(C)(C)c1cc(Nc2ncnc(Nc3cccc(Cl)c3)n2)[nH]n1 ?
5.16 to 5.93

Data credit: patent US7074789B2
